- assayTarget: Cyclin-dependent kinase 2 (Homo sapiens) (UniProt P24941)
- conditionContext: Compound concentration 20.0 uM, Protein concentration 2.0 uM, Result type QC Liability
- Description: Thermal Shift Assay. Domain: start/stop: M1-L298
Quick rule for you: ΔTm under 0.3 °C gets y, anything else gets n.

>  <molecule>
COc1cc(C(=O)NCCOCCOCCOCC(=O)N[C@H](C(=O)N2C[C@@H](O)C[C@H]2C(=O)NCc2ccc(-c3scnc3C)cc2)C(C)(C)C)ccc1Nc1ncc(C(F)(F)F)c(Oc2cccc3c2C(=O)CC3)n1

>  <group>
y

$$$$
>  <molecule>
COc1cc2c(NC3CCN(C(C)C)CC3)nc(C3CCCCC3)nc2cc1OCCCN1CCCC1

>  <group>
n

$$$$
>  <molecule>
C=CC1C[C@]1(NC(=O)[C@@H]1C[C@@H](Oc2cc(-c3csc(NC(=O)C(C)C)n3)nc3c(Br)c(OC)ccc23)CN1C(=O)[C@@H](NC(=O)OC1CCCC1)C(C)(C)C)C(=O)O (stereo partly drawn)

>  <group>
n

$$$$
>  <molecule>
Cc1cc2c(-c3ccco3)cnc(N[C@H]3CCN(C)C[C@@H]3C(=O)NC3CCCCC3)c2[nH]c1=O

>  <group>
y

$$$$
>  <molecule>
CN(C)c1ncc2cc(-c3ccc(-c4ncccc4F)cc3Cl)c(=O)n(C[C@H]3OC[C@H](N)CO3)c2n1

>  <group>
y

$$$$
>  <molecule>
Fc1ccc(-c2nc(-c3ccc4ccccc4c3F)[nH]c2-c2ccncc2)cc1

>  <group>
y

$$$$
>  <molecule>
Cc1csc(-c2nnc(Nc3ccc(Oc4ncccc4-c4ccnc(N)n4)cc3)c3ccccc23)c1

>  <group>
n

$$$$
>  <molecule>
COc1cc(-c2cn(C)c(=O)c3cnccc23)c(OC)cc1CN(C)C

>  <group>
n

$$$$

###

- assayTarget: Aurora kinase A (Homo sapiens) (UniProt O14965)
- Sequence (whole entry): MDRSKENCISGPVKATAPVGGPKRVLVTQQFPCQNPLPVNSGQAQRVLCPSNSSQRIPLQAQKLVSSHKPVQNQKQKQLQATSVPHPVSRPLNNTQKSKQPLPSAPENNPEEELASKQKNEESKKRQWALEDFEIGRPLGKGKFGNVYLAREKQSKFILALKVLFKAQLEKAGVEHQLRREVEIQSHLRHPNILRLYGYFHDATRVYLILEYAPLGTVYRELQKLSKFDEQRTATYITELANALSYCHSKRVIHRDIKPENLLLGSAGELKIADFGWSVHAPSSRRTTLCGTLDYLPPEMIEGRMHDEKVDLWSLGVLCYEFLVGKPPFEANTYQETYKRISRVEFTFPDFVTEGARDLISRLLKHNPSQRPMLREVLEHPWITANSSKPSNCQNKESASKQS
- conditionContext: Compound concentration 20.0 uM, Protein concentration 2.0 uM, Result type QC Liability
- Description: Thermal Shift Assay. Domain: start/stop: E122-S403
# key: entry, value: ΔTm
property: ΔTm (°C)

>  <molecule>
CS(=O)(=O)NCC[C@H](NC(=O)c1cncc2c1cnn2-c1ccc(F)cc1)c1ccnc(S(C)(=O)=O)c1

>  <property>
ΔTm

>  <scaleUnit>
°C

>  <readoutNumber>
0.06

$$$$
>  <molecule>
Cc1cn(CCN2CCN(c3ccccc3-c3cc(C#N)cc(C(=O)NCCCN4CCCC4)c3)CC2)c2ccccc12

>  <property>
ΔTm

>  <scaleUnit>
°C

>  <readoutNumber>
-0.16

$$$$
>  <molecule>
CP(C)(=O)c1ccc(CNC(=O)C2CCN(S(=O)(=O)c3cc(Cl)cc(Cl)c3)CC2)cc1

>  <property>
ΔTm

>  <scaleUnit>
°C

>  <readoutNumber>
-0.19

$$$$
>  <molecule>
CN1CCc2cc(Nc3ncc(C(F)(F)F)c(NCc4cc[nH]n4)n3)ccc2C1

>  <property>
ΔTm

>  <scaleUnit>
°C

>  <readoutNumber>
11.3

$$$$
>  <molecule>
Cc1cnc(-c2cnc(NCCNc3ccc(C#N)cn3)nc2-c2ccc(Cl)cc2Cl)[nH]1

>  <property>
ΔTm

>  <scaleUnit>
°C

>  <readoutNumber>
2.09

$$$$
>  <molecule>
CC(C(=O)Nc1cc(C#N)ccc1CCCC(=O)O)c1ccc(F)c2ccccc12 (centres undefined)

>  <property>
ΔTm

>  <scaleUnit>
°C

>  <readoutNumber>
-0.36

$$$$
>  <molecule>
O=C1CCCN1CCNc1nc(Nc2ccc(Cl)c(Cl)c2)ncc1C(F)(F)F

>  <property>
ΔTm

>  <scaleUnit>
°C

>  <readoutNumber>
11.2

$$$$
>  <molecule>
COc1cc(N2CCN(C)CC2)ccc1Nc1ncc2c(n1)N(C)c1ccccc1C(=O)N2CC(F)(F)F

>  <property>
ΔTm

>  <scaleUnit>
°C

>  <readoutNumber>
0.18

$$$$
>  <molecule>
CC#CCC(C)[C@H](O)/C=C/[C@@H]1[C@H]2C/C(=C/CCCC(=O)O)C[C@H]2C[C@H]1O (some centres undefined)

>  <property>
ΔTm

>  <scaleUnit>
°C

>  <readoutNumber>
-0.07

$$$$

###

- assayTarget: Casein kinase I isoform delta (Homo sapiens)
- conditionContext: Compound concentration 20.0 uM, Protein concentration 2.0 uM, Result type QC Liability
- Description: Thermal Shift Assay. Domain: start/stop: M1-K294
// ΔTm lookup, one value per entry
property: ΔTm (°C)

>  <compound>
CCCN1CCC(C#N)(NC(=O)[C@H](CC(C)(C)C)NC(=O)N2CCOCC2)CC1

>  <property>
ΔTm

>  <scaleUnit>
°C

>  <readoutNumber>
0.1

$$$$
>  <compound>
Cc1c(CN2CCC3(CC2)CN(c2ncnc4sc(CC(F)(F)F)cc24)C3)ccc2c1cc(C#N)n2CC(N)=O

>  <property>
ΔTm

>  <scaleUnit>
°C

>  <readoutNumber>
0.92

$$$$
>  <compound>
CN1CCN(c2ccc(Nc3ncc4cc5n(c4n3)C3(CCCCC3)CNC5=O)nc2)CC1

>  <property>
ΔTm

>  <scaleUnit>
°C

>  <readoutNumber>
-0.03

$$$$
>  <compound>
Cc1nc(-c2ccc(C(F)(F)F)cc2)sc1C(=O)NCc1ccc(OC(C)(C)C(=O)O)cc1

>  <property>
ΔTm

>  <scaleUnit>
°C

>  <readoutNumber>
0.63

$$$$
>  <compound>
Cc1ncsc1-c1ccc(CNC(=O)[C@@H]2C[C@H](O)CN2C(=O)[C@@H](NC(=O)C2(F)CC2)C(C)(C)C)c(OCCOc2ccc(CN3CCN(c4cc(-c5ccccc5O)nnc4N)CC3)cc2)c1 (relative stereo)

>  <property>
ΔTm

>  <scaleUnit>
°C

>  <readoutNumber>
6.03

$$$$
>  <compound>
CCN(CC)C/C=C/C(=O)Nc1cc2c(Nc3ccc(F)c(Cl)c3)ncnc2cc1OCC1CC1

>  <property>
ΔTm

>  <scaleUnit>
°C

>  <readoutNumber>
0.34

$$$$
>  <compound>
O=C(O)CCC/C=C\C[C@@H]1[C@@H](/C=C/[C@@H](O)COc2cccc(C(F)(F)F)c2)[C@H](O)C[C@@H]1O

>  <property>
ΔTm

>  <scaleUnit>
°C

>  <readoutNumber>
0.07

$$$$
>  <compound>
COc1cc2ncnc(N[C@H](C)c3ccccc3)c2cc1OC1CCN(S(C)(=O)=O)CC1

>  <property>
ΔTm

>  <scaleUnit>
°C

>  <readoutNumber>
0.38

$$$$
>  <compound>
Cc1cc([N+](=O)[O-])c(NS(=O)(=O)c2cccc(C(=O)O)c2)cc1-c1cccnc1

>  <property>
ΔTm

>  <scaleUnit>
°C

>  <readoutNumber>
0.28

$$$$
>  <compound>
CC(C)(C)C(=O)NCc1ccc(Cl)c(C(=O)Nc2ncc[nH]2)c1

>  <property>
ΔTm

>  <scaleUnit>
°C

>  <readoutNumber>
-0.14

$$$$
>  <compound>
COc1ccc(N(C(=O)Nc2c(C)cccc2C)c2cc(Nc3ccc(N4CCN(C)CC4)cc3)ncn2)c(OC)c1

>  <property>
ΔTm

>  <scaleUnit>
°C

>  <readoutNumber>
2.65

$$$$
>  <compound>
C=CC(=O)Nc1cccc(C(=O)Nc2ccc(Nc3cc(-c4c(-c5ccc(F)cc5)nc(SC)n4C)ccn3)cc2)c1

>  <property>
ΔTm

>  <scaleUnit>
°C

>  <readoutNumber>
3.17

$$$$
>  <compound>
COc1ccc2c(O[C@@H]3C[C@H]4C(=O)N[C@]5(C(=O)NS(=O)(=O)C6(C)CC6)CC5/C=C\CCCCC[C@H](NC(=O)c5ccn(C)n5)C(=O)N4C3)cc(OC(C)C)nc2c1C (stereo not given in full)

>  <property>
ΔTm

>  <scaleUnit>
°C

>  <readoutNumber>
-1.66

$$$$
>  <compound>
O=C(NCCS(=O)(=O)c1ccc(C(F)(F)F)cn1)c1ccc(Cl)cc1

>  <property>
ΔTm

>  <scaleUnit>
°C

>  <readoutNumber>
0.23

$$$$
>  <compound>
CN(C)[C@H]1CCc2nc(NC(=O)c3cccc(Cn4cc(-c5ccc(C#N)cc5)cn4)c3)sc2C1

>  <property>
ΔTm

>  <scaleUnit>
°C

>  <readoutNumber>
0.36

$$$$
>  <compound>
O=C(Nc1cccc(Nc2nccc(Nc3cccc(C(F)(F)F)c3)n2)c1)C1CC1

>  <property>
ΔTm

>  <scaleUnit>
°C

>  <readoutNumber>
1.09

$$$$
>  <compound>
CCn1c(-c2nonc2N)nc2ccccc21

>  <property>
ΔTm

>  <scaleUnit>
°C

>  <readoutNumber>
0.5

$$$$
>  <compound>
O=C(O)CCCCN(CCc1cc(F)ccc1OCc1ccc(-c2ccc(C(F)(F)F)cc2)cc1)Cc1ccc(C(=O)O)cc1

>  <property>
ΔTm

>  <scaleUnit>
°C

>  <readoutNumber>
0.21

$$$$
>  <compound>
CN(CC(=O)Nc1ccc(F)c(F)c1F)C(=O)c1ccc2c(c1)OCCO2

>  <property>
ΔTm

>  <scaleUnit>
°C

>  <readoutNumber>
0.08

$$$$
>  <compound>
COc1ccc(S(=O)(=O)N2CCOCC2)cc1Nc1ccc2c(n1)N(C1CCN(C)CC1)[C@H](C)C(=O)N2C

>  <property>
ΔTm

>  <scaleUnit>
°C

>  <readoutNumber>
0.44

$$$$
>  <compound>
CCc1cnn2c(NCc3ccc[n+]([O-])c3)cc(N3CCCCC3CCO)nc12 (stereo not given)

>  <property>
ΔTm

>  <scaleUnit>
°C

>  <readoutNumber>
1.31

$$$$
>  <compound>
Cn1cnc(Cn2ccc3ccc(CNCc4[nH]c5ccccc5c4[C@@H]4NC(=O)c5ccc(O)cc54)cc32)c1

>  <property>
ΔTm

>  <scaleUnit>
°C

>  <readoutNumber>
0.29

$$$$
>  <compound>
CCN(CC)C(=O)C1CN2CCc3cc(OC)c(OC)cc3C2CC1OC(C)=O (stereo not given)

>  <property>
ΔTm

>  <scaleUnit>
°C

>  <readoutNumber>
-0.03

$$$$
>  <compound>
CC(=O)Nc1cccc(-n2c(=O)n(C3CC3)c(=O)c3c(Nc4ccc(I)cc4F)n(C)c(=O)c(C)c32)c1

>  <property>
ΔTm

>  <scaleUnit>
°C

>  <readoutNumber>
0.23

$$$$
>  <compound>
CC(C)NC(=O)[C@H]1CCC[C@H]1Nc1nc(Nc2ccc(CN(C)C)cc2)ncc1Br

>  <property>
ΔTm

>  <scaleUnit>
°C

>  <readoutNumber>
0.87

$$$$
>  <compound>
COc1c(NC(=O)c2cc3cccc(Oc4ccnc(C(=O)N5CCN(C)CC5)c4)c3n2C)cc(C(C)(C)C)cc1NS(C)(=O)=O

>  <property>
ΔTm

>  <scaleUnit>
°C

>  <readoutNumber>
0.73

$$$$
>  <compound>
CCC(C(=O)Nc1ccc(-c2cc3ccccc3s2)c(C(N)=O)c1)c1nccs1 (stereo not given)

>  <property>
ΔTm

>  <scaleUnit>
°C

>  <readoutNumber>
0.47

$$$$
>  <compound>
Cn1cnc(Cn2ccc3ccc(CNCc4[nH]c5ccccc5c4[C@H]4NC(=O)c5ccc(O)cc54)cc32)c1

>  <property>
ΔTm

>  <scaleUnit>
°C

>  <readoutNumber>
0.32

$$$$
>  <compound>
O=C(Nc1snnc1C(=O)Nc1ccc(N2CCCC2)cc1)c1cncc(C(F)(F)F)c1

>  <property>
ΔTm

>  <scaleUnit>
°C

>  <readoutNumber>
1.04

$$$$
>  <compound>
Cc1nn(-c2ccccc2)c(Nc2ccccc2C(=O)O)c1-c1cc2nccnc2c(F)c1F

>  <property>
ΔTm

>  <scaleUnit>
°C

>  <readoutNumber>
0.22

$$$$

# credit: ChEMBL document CHEMBL5308504
